pIC50: −log10 of the molar value.
// each record: one item and its pIC50 for human GST-CLK1 (129-end) (Homo sapiens, UniProt P49759)

>  <molecule>
CCNc1cc(Nc2ccc(P3(=O)CCN(C(C)=O)CC3)cc2OC)nc2[nH]cc(C#N)c12 [Example 145]

>  <recorded endpoint>
pIC50

>  <result>
6.00 to 6.52

$$$$
>  <molecule>
CCNc1cc(Nc2ccc(C(=O)N3CCOCC3)c3c2OCO3)nc2[nH]cc(C(F)(F)F)c12 [Example 236]

>  <recorded endpoint>
pIC50

>  <result>
> 7.00

$$$$

// query pIC50 lookup needed for COc1cc(S(=O)(=O)N2CCC(N3CCOCC3)CC2)ccc1Nc1cc(NC2CCCCC2)c2c(C(F)(F)F)c[nH]c2n1 [Example 183] , thanks.
// result 6.00 to 6.52
